- System: Activated CDC42 kinase 1 (Homo sapiens)
- Condition context: at 1 µM
- Description: GSK_PKIS: TNK2 mean inhibition at 1 uM [Nanosyn]
Listing of recorded inhibition by entry.
Quantity measured: inhibition (%)

> print(dat)
                                smiles.text  quantity.measured  unit.string  measured
1    O=C(Nc1n[nH]c2nnc(-c3cccnc3)cc12)C1CC1         inhibition            %      1.68
2           CNC(=O)c1cncc(/C=C/c2ccccc2C)c1         inhibition            %      8.09
3  CN(C)CCNC(=O)Nc1ccc(N(C)c2ccnc(Nc3ccc(CS(C)(=O)=O)cc3)n2)cc1         inhibition            %      4.15
4  CNC(=O)c1sc(-n2cnc3cc(OC)c(OC)cc32)cc1OCc1ccccc1C(F)(F)F         inhibition            %      4.41
5  CCS(=O)(=O)c1ccc(OC)c(Nc2ncc(-c3cccc(C(C)=O)c3)o2)c1         inhibition            %       6.5
